system: Klebsiella pneumoniae; experiment: Antimicrobial activity against Klebsiella pneumoniae MTCC 618 by broth dilution method; format: functional
measure: MIC (µg/mL)
Answer format: numeric, µg/mL implied, no suffix.

// below: answered compounds
{"input-smiles": "O=c1oc2ccc(Cl)cc2n1CCCN1CCN(c2cccc(Cl)c2)CC1", "quantitative-result": 150}
{"input-smiles": "CN1CCN(c2nc3ccccc3o2)CC1", "quantitative-result": 150}

// MIC lookup, key: O=c1oc2ccc(Cl)cc2n1CCCN1CCN(Cc2ccccc2)CC1
150

// MIC lookup, key: c1ccc(N2CCN(c3nc4ccccc4o3)CC2)nc1
150

// MIC lookup, key: c1cnc(N2CCN(c3nc4ccccc4o3)CC2)nc1
75

// MIC lookup, key: CC1(C)S[C@@H]2[C@H](NC(=O)Cc3ccccc3)C(=O)N2[C@H]1C(=O)O
6.25

// MIC lookup, key: CN[C@@H]1[C@H](O[C@H]2[C@H](O[C@H]3[C@H](O)[C@@H](O)[C@H](N=C(N)N)[C@@H](O)[C@@H]3N=C(N)N)O[C@@H](C)[C@]2(O)C=O)O[C@@H](CO)[C@H](O)[C@H]1O
3.12

// MIC lookup, key: C=CCCn1c(=O)oc2ccc(Cl)cc21
37.5

// MIC lookup, key: O=c1oc2ccc(Cl)cc2n1Cc1ccccc1
75

// MIC lookup, key: O=c1oc2ccc(Cl)cc2n1CCCN1CCN(c2ncccn2)CC1
150

---

Known zone of inhibition at 100 µg/disc of a selection of molecules
system: Aspergillus niger; assay: Antimicrobial activity against Aspergillus niger MTCC 282 at 100 ug after 48 hr by agar well diffusion method; format: functional; details: MTCC 282, 48 h, read-out: IZ
Answer format: numeric, mm implied, no suffix.

// below: answered molecules
{"input-smiles": "O=c1oc2ccc(Cl)cc2n1CCCN1CCN(Cc2ccccc2)CC1", "target-or-system": "Aspergillus niger", "zone of inhibition at 100 µg/disc [mm]": 7}
{"input-smiles": "CC(C)=CCn1c(=O)oc2ccc(Cl)cc21", "target-or-system": "Aspergillus niger", "zone of inhibition at 100 µg/disc [mm]": 8}
{"input-smiles": "O=c1oc2ccc(Cl)cc2n1CCCCl", "target-or-system": "Aspergillus niger", "zone of inhibition at 100 µg/disc [mm]": 13}
{"input-smiles": "CCN1CCN(c2nc3ccccc3o2)CC1", "target-or-system": "Aspergillus niger", "zone of inhibition at 100 µg/disc [mm]": 9}
{"input-smiles": "C=CCn1c(=O)oc2ccc(Cl)cc21", "target-or-system": "Aspergillus niger", "zone of inhibition at 100 µg/disc [mm]": 8}
{"input-smiles": "C#CCn1c(=O)oc2ccc(Cl)cc21", "target-or-system": "Aspergillus niger", "zone of inhibition at 100 µg/disc [mm]": 15}

// zone of inhibition at 100 µg/disc lookup, key: O=c1oc2ccc(Cl)cc2n1CCCN1CCOCC1
8

// zone of inhibition at 100 µg/disc lookup, key: c1ccc2oc(N3CCCCC3)nc2c1
8

---

tested on: Rhizopus arrhizus; experiment: Antimicrobial activity against Rhizopus oryzae MTCC 262 at 150 ug after 48 hr by agar well diffusion method; type: functional; conditions: MTCC 262, 48 h, read-out: IZ
Known zone of inhibition at 150 µg/disc of a selection of molecules
Answer format: numeric, mm implied, no suffix.

// zone of inhibition at 150 µg/disc lookup, key: C=CCCn1c(=O)oc2ccc(Cl)cc21
13

// zone of inhibition at 150 µg/disc lookup, key: O=c1oc2ccc(Cl)cc2n1CCCN1CCOCC1
13

// zone of inhibition at 150 µg/disc lookup, key: CC(C)=CCn1c(=O)oc2ccc(Cl)cc21
9

---

system: Staphylococcus epidermidis; assay: Antimicrobial activity against Staphylococcus epidermidis by broth dilution method; format: functional
Known MIC of a selection of molecules
Answer format: numeric, µg/mL implied, no suffix.

// below: answered molecules
{"molecule": "CC1CN(c2nc3ccccc3o2)CCN1 (stereo not given)", "MIC / µg/mL": 150}
{"molecule": "CC1(C)S[C@@H]2[C@H](NC(=O)Cc3ccccc3)C(=O)N2[C@H]1C(=O)O", "MIC / µg/mL": 3.12}
{"molecule": "CN[C@@H]1[C@H](O[C@H]2[C@H](O[C@H]3[C@H](O)[C@@H](O)[C@H](N=C(N)N)[C@@H](O)[C@@H]3N=C(N)N)O[C@@H](C)[C@]2(O)C=O)O[C@@H](CO)[C@H](O)[C@H]1O", "MIC / µg/mL": 3.12}
{"molecule": "c1ccc(CN2CCN(c3nc4ccccc4o3)CC2)cc1", "MIC / µg/mL": 75}

Lookup: MIC / Staphylococcus epidermidis / CN1CCN(c2nc3ccccc3o2)CC1
75

---

tested on: Escherichia coli; experiment: Antimicrobial activity against Escherichia coli MTCC 443 by broth dilution method; type: functional
Known MIC of a selection of compounds
Answer format: numeric, µg/mL implied, no suffix.

{"compound": "c1ccc2oc(N3CCCNCC3)nc2c1", "target-or-system": "Escherichia coli", "MIC / µg/mL": 75}

Lookup: MIC / Escherichia coli / O=c1oc2ccc(Cl)cc2n1CCCN1CCN(Cc2ccccc2)CC1
150

Lookup: MIC / Escherichia coli / CN[C@@H]1[C@H](O[C@H]2[C@H](O[C@H]3[C@H](O)[C@@H](O)[C@H](N=C(N)N)[C@@H](O)[C@@H]3N=C(N)N)O[C@@H](C)[C@]2(O)C=O)O[C@@H](CO)[C@H](O)[C@H]1O [STREPTOMYCIN]
6.25

Lookup: MIC / Escherichia coli / c1ccc(CN2CCN(c3nc4ccccc4o3)CC2)cc1
150

Lookup: MIC / Escherichia coli / O=c1oc2ccc(Cl)cc2n1CCCN1CCN(c2ccccc2)CC1
150

Lookup: MIC / Escherichia coli / c1ccc(N2CCN(c3nc4ccccc4o3)CC2)cc1
75

---

test system: Klebsiella pneumoniae; assay: Antimicrobial activity against Klebsiella pneumoniae MTCC 618 by broth dilution method; format: functional
Known MIC of a selection of compounds
Answer format: numeric, µg/mL implied, no suffix.

// below: answered compounds
{"input-smiles": "c1ccc(CN2CCN(c3nc4ccccc4o3)CC2)cc1", "MIC, µg/mL": 150}
{"input-smiles": "CCN1CCN(c2nc3ccccc3o2)CC1", "MIC, µg/mL": 75}
{"input-smiles": "c1ccc2oc(N3CCCNCC3)nc2c1", "MIC, µg/mL": 75}
{"input-smiles": "O=c1oc2ccc(Cl)cc2n1CCCN1CCN(c2ccccc2)CC1", "MIC, µg/mL": 150}
{"input-smiles": "CC(C)=CCn1c(=O)oc2ccc(Cl)cc21", "MIC, µg/mL": 150}

// MIC lookup, key: C=CCn1c(=O)oc2ccc(Cl)cc21
37.5

// MIC lookup, key: c1ccc(N2CCN(c3nc4ccccc4o3)CC2)cc1
150

// MIC lookup, key: c1ccc2oc(N3CCCCC3)nc2c1
150

// MIC lookup, key: O=c1oc2ccc(Cl)cc2n1CCCCl
150

---

Known MIC of a selection of compounds
system: Staphylococcus epidermidis; assay: Antimicrobial activity against Staphylococcus epidermidis by broth dilution method; type: functional
Answer format: numeric, µg/mL implied, no suffix.

// below: answered compounds
{"input-smiles": "C=CCn1c(=O)oc2ccc(Cl)cc21", "measurement-unit": "µg/mL", "MIC": 150}
{"input-smiles": "Clc1cccc(N2CCN(c3nc4ccccc4o3)CC2)c1", "measurement-unit": "µg/mL", "MIC": 150}
{"input-smiles": "c1ccc2oc(N3CCOCC3)nc2c1", "measurement-unit": "µg/mL", "MIC": 150}

Lookup: MIC / Staphylococcus epidermidis / c1ccc(N2CCN(c3nc4ccccc4o3)CC2)cc1
150

Lookup: MIC / Staphylococcus epidermidis / O=c1oc2ccc(Cl)cc2n1CCCN1CCN(Cc2ccccc2)CC1
75

Lookup: MIC / Staphylococcus epidermidis / c1ccc2oc(N3CCCNCC3)nc2c1
150

Lookup: MIC / Staphylococcus epidermidis / CCN1CCN(c2nc3ccccc3o2)CC1
75

Lookup: MIC / Staphylococcus epidermidis / O=c1oc2ccc(Cl)cc2n1Cc1ccccc1
75

---

system: Klebsiella pneumoniae; assay: Antimicrobial activity against Klebsiella pneumoniae MTCC 618 by broth dilution method; type: functional
measure: MIC (µg/mL)
Answer format: numeric, µg/mL implied, no suffix.

// below: answered compounds
{"compound": "O=c1oc2ccc(Cl)cc2n1CCCN1CCOCC1", "MIC (µg/mL)": 75}
{"compound": "CC1CN(c2nc3ccccc3o2)CCN1 (configuration not stated)", "MIC (µg/mL)": 150}
{"compound": "C#CCn1c(=O)oc2ccc(Cl)cc21", "MIC (µg/mL)": 75}
{"compound": "OCCN1CCN(c2nc3ccccc3o2)CC1", "MIC (µg/mL)": 75}
{"compound": "Clc1cccc(N2CCN(c3nc4ccccc4o3)CC2)c1", "MIC (µg/mL)": 150}

// MIC lookup, key: O=c1oc2ccc(Cl)cc2n1CCCN1CCN(c2ccccn2)CC1
150

// MIC lookup, key: c1ccc2oc(N3CCOCC3)nc2c1
37.5
